The measured values listed here are drawn from PubChem BioAssay (NCI).

Tested on: NCI/ADR-RES ovarian
assay protocol: NCI tumour cell line growth inhibition, 48 h; in the data active = GI50 below about 0.43 µM; inactive = the rest
Returns: one label drawn from yes = active, no = inactive

Please review the following examples before continuing.
> print(dat)
                                    compound          target.desc  class.name
 1        CCCCCCCCCCCCCCCC1=NCC[N+]1(CCO)CCO  NCI/ADR-RES ovarian          no
 2    O=c1c2ccccc2sc2c(NCCCNCCO)nc3ccccc3c12  NCI/ADR-RES ovarian          no
 3  COc1cc(/C=C2\CC3C4CC=C5C[C@@H](OC(C)=O)CC[C@]5(C)C4CC[C@]3(C)C2=O)ccc1OCCN1CCCCC1 (stereo partly drawn)  NCI/ADR-RES ovarian          no
 4  Cc1cc2c(C(=O)NC[C@H](C)c3ccccc3)c(O)c(O)cc2c(O)c1-c1c(C)cc2c(C(=O)NC[C@H](C)c3ccccc3)c(O)c(O)cc2c1O  NCI/ADR-RES ovarian         yes
 5  Clc1c(Cl)[n+](Cc2ccc3ccccc3c2)cn1Cc1ccc2ccccc2c1  NCI/ADR-RES ovarian          no
 6  COc1cc2c(cc1OC(C)C)[C@H](c1ccc(Cl)cc1)N(c1ccc(N(C)CC3CCC(N4CCN(C)C(=O)C4)CC3)cc1)C(=O)C2 (stereo partly drawn)  NCI/ADR-RES ovarian          no
 7  COc1c/c(=C2\C=c3ccccc3=N2)[nH]/c1=C\c1[nH]c(C)cc1C  NCI/ADR-RES ovarian         yes
 8   Cc1cc2nc(NCCN)n(Cc3ccc(F)c(Cl)c3)c2cc1C  NCI/ADR-RES ovarian          no
 9  CC(C)(C)C(=O)OCOP(=O)(NCc1ccccc1)C1CCCN(O)C1=O (stereo not drawn)  NCI/ADR-RES ovarian          no
10     O=c1oc2ccc(I)cc2c(=O)n1-c1ccc(Br)cc1F  NCI/ADR-RES ovarian          no

Entry `O=c1c2c(nc3n1CCS3)[nH]c1cc([N+](=O)[O-])ccc12` : call = ?
no

Entry `O=C(CSc1nc2c(n1Nc1ccccc1)-c1ccccc1SC2)Nc1nc(-c2ccc(Cl)cc2)cs1` : call = ?
no

Entry `C=CN(C(=O)N1CCN(c2cc3c(cc2F)c(=O)c(C(=O)O)cn3C2CC2)CC1)c1nc(-c2ccc(OC)cc2)cs1` : call = ?
no

----------
Tested on: U251 CNS
Returns: one label drawn from Yes (active), No (inactive)

Please review the following examples before continuing.
> print(dat)
                                   compound  target.desc  class.name
1  COc1cc2c(cc1OC(C)C)[C@H](c1ccc(Cl)cc1)N(c1ccc(N(C)CC3CCC(N4CCN(C)C(=O)C4)CC3)cc1)C(=O)C2 (some centres undefined)     U251 CNS          No
2  CNC(=O)c1c(C)oc2cc(Oc3ncnc4cc(OC)c(OC)cc34)ccc12     U251 CNS          No
3  COc1ccc2ncn(-c3cc(O[C@H](C)c4ccccc4C(F)(F)F)c(C(N)=O)s3)c2c1     U251 CNS         Yes
4  COc1cc(/C=C2\CC3C4CC=C5C[C@@H](OC(C)=O)CC[C@]5(C)C4CC[C@]3(C)C2=O)ccc1OCCN1CCCCC1 (some centres undefined)     U251 CNS          No
5  Clc1c(Cl)[n+](Cc2ccc3ccccc3c2)cn1Cc1ccc2ccccc2c1     U251 CNS          No
6  CCc1ccc(Oc2c(-c3ccc(OCc4ccc(Cl)cc4)cc3O)n[nH]c2C(F)(F)F)cc1     U251 CNS          No
7        CCCCCCCCCCCCCCCC1=NCC[N+]1(CCO)CCO     U251 CNS          No
8  CCOC(=O)C1=CCCC[C@H]1S(=O)(=O)Nc1ccc(F)cc1Cl     U251 CNS          No

Entry `C=C(c1ccc(OC)c(/C=C/C(=O)c2ccc3c(c2)OCO3)c1)c1cc(OC)c(OC)c(OC)c1` : call = ?
No

----------
Tested on: HOP-18 NSCLC
assay protocol: NCI tumour cell line growth inhibition, 48 h
endpoint name: TGI

Solved entries:
> print(dat)
                                   compound     value
1  CSc1ccc2c(cc1=O)[C@@H](NC(=O)c1cccc([N+](=O)[O-])c1)CCc1cc(O)c(O)c(O)c1-2  > 100 µM
2  CC1(C)OC2C(CCP(=O)(O)O)OC(c3nc(C(N)=O)cs3)C2O1 (centres undefined)  > 100 µM
3  CCOC(OC(C)=O)[C@@H]1C=C[C@H](C)N(c2ccc([N+](=O)[O-])cc2)O1 (some centres undefined)   17.8 µM

Reading of TGI for CSc1nc(-c2ccc(Cl)cc2)c(C#N)c(=O)n1C1OC(COC(C)=O)C(OC(C)=O)C(OC(C)=O)C1OC(C)=O (centres undefined) with HOP-18 NSCLC: > 100 µM

----------
Tested on: RXF 393 renal
assay protocol: NCI tumour cell line growth inhibition, 48 h; in the data active means GI50 below about 0.43 µM; inactive means the rest
Returns: one label drawn from active, inactive

Please review the following examples before continuing.
compound	class name
CN[C@H]1CN(c2ccc3c(=O)c(C(=O)O)cn(-c4nccs4)c3n2)C[C@@H]1OC	inactive
Cc1cc2c(C(=O)NC[C@H](C)c3ccccc3)c(O)c(O)cc2c(O)c1-c1c(C)cc2c(C(=O)NC[C@H](C)c3ccccc3)c(O)c(O)cc2c1O	active
Fc1ccc(-c2c(-c3ccncc3)nc3n2CCS3)cc1	inactive

Entry `COc1ccc(/C=C\c2cc(OC)c(OC)c(OC)c2)cc1OCC(=O)Nc1nc2ccc(F)cc2s1` : call = ?
inactive

Entry `O=C(CN(/C=C/C(=O)C(F)(F)F)c1ccc(Cl)cc1)c1ccc(Cl)cc1` : call = ?
inactive

Entry `COc1ccc2ncn(-c3cc(O[C@H](C)c4ccccc4C(F)(F)F)c(C(N)=O)s3)c2c1` : call = ?
active

Entry `O=C1N[C@@H]2[C@@H](O)[C@@H](O)[C@H](O)C[C@H]2c2cc3c(c(O)c21)OCCO3` : call = ?
active

Entry COc1cc2c(cc1OC(C)C)[C@H](c1ccc(Cl)cc1)N(c1ccc(N(C)CC3CCC(N4CCN(C)C(=O)C4)CC3)cc1)C(=O)C2 (some centres not stated) : call = ?
inactive

----------
System: UACC-257 melanoma
assay protocol: NCI tumour cell line growth inhibition, 48 h
endpoint name: GI50

> print(dat)
                  compound.structure.string  endpoint.name     value
1        CCCCCCCCCCCCCCCC1=NCC[N+]1(CCO)CCO           GI50   6.48 µM
2     O=c1oc2ccc(I)cc2c(=O)n1-c1ccc(Br)cc1F           GI50  0.735 µM
3  O=C1Nc2c(ccc(Cl)c2Cl)/C1=C/c1cc(Br)c(O)c(Br)c1           GI50   6.19 µM
4  CN[C@H]1CN(c2ccc3c(=O)c(C(=O)O)cn(-c4nccs4)c3n2)C[C@@H]1OC           GI50   1.11 µM

Next:
According to the records, this compound `COc1cc(/C=C/c2cc(/C=C/c3ccc(O)c(OC)c3)n(C(=O)c3ccc(Cl)cc3)n2)ccc1O` displays GI50 of 3.79 µM

----------
System: HL-60(TB) leukemia
assay protocol: NCI tumour cell line growth inhibition, 48 h
Classes by TGI: lower bin: < 5 µM; middle bin: ≥ 5 µM and < 50 µM; upper bin: ≥ 50 µM

Please review the following examples before continuing.
compound	target desc	class name
CC(C)C[C@H](NC(=O)CNC(=O)c1cc(Cl)ccc1Cl)B(O)O	HL-60(TB) leukemia	lower bin
Cc1ccc(CC2(C(=O)O)Cc3ccc(C)cc3C2)cc1 (stereo unspecified)	HL-60(TB) leukemia	upper bin
C=CCN(c1cc(OC)c(NC(C)=O)cc1[N+](=O)[O-])S(C)(=O)=O	HL-60(TB) leukemia	upper bin
Oc1c(Br)cc(/C=C/c2ccnc(/C=C/c3cc(Br)c(O)c(Br)c3)c2)cc1Br	HL-60(TB) leukemia	upper bin
CCCCN1C(=O)C2Cc3c([nH]c4ccccc34)C(c3cccc(O)c3)N2C1=O (stereo unspecified)	HL-60(TB) leukemia	middle bin
CCn1cc2c(=O)n3ncn(-c4ccc(Br)cc4)c3nc2n1	HL-60(TB) leukemia	upper bin
O=C1/C(=C\c2ccc(Cl)cc2)N=C(c2ccccc2)N1n1c(=O)cn[nH]c1=S	HL-60(TB) leukemia	upper bin
C/C(=N\N=C(N)N)C(CN1CCCCC1)C(c1ccccc1)c1c(O)c2ccccc2oc1=O (stereo unspecified)	HL-60(TB) leukemia	upper bin
Cc1nn(CNc2ccccc2C(F)(F)F)c(=S)n1/N=C/c1cccc2cccnc12	HL-60(TB) leukemia	upper bin
Cc1nc2sccn2c1C(=O)NN	HL-60(TB) leukemia	upper bin

Determine which band this compound sits in: `CC[C@]12C=CCN3CC[C@@]4(c5cc(N=O)c(OC)cc5N(C)[C@H]4[C@@](O)(C(=O)OC)[C@@H]1OC(C)=O)[C@@H]32`
upper bin

Determine which band this compound sits in: COc1cc2c(cc1OC(C)C)[C@H](c1ccc(Cl)cc1)N(c1ccc(N(C)CC3CCC(N4CCN(C)C(=O)C4)CC3)cc1)C(=O)C2 (stereo partly specified)
middle bin
